# System: A498 renal
# method-description: NCI tumour cell line growth inhibition, 48 h
measurement-kind: TGI

Cc1ccc(S(=O)(=O)N/N=C(\C(=O)Nc2cccc([N+](=O)[O-])c2)c2nc3ccc([N+](=O)[O-])cc3[nH]c2=O)cc1 ... > 100 µM

# input compound: CCCCCCCCCCCC(=O)OCC1OC(n2cc(F)c(=O)[nH]c2=O)C(N)C(O)C1O (centres undefined) ; wanted: its TGI
> 100 µM

# input compound: C=CCN(N=O)C(=O)N(CCC)CCCCC(NC(C)=O)C(=O)NCc1ccccc1 (centres undefined) ; wanted: its TGI
> 100 µM

# input compound: COC(=O)c1nc2c3c(cccc3c1C(=O)OC)Nc1ccccc1-2 ; wanted: its TGI
> 100 µM

# input compound: CCCCCCCCCC(=O)OCC1OC(n2cc(F)c(=O)[nH]c2=O)C(N)C(OC(=O)CCCCCCCCC)C1O (centres undefined) ; wanted: its TGI
31.6 µM

# input compound: COc1cc(-c2c(C)c(C)nc(OC)c2C#N)cc(OC)c1OC ; wanted: its TGI
> 100 µM

# input compound: N=C(N)C1CN(CC=O)C(=O)NC1=O (centres undefined) ; wanted: its TGI
> 100 µM

# input compound: Cc1ccc2sc3c(NCCCNCCO)nc4ccccc4c3c(=O)c2c1 ; wanted: its TGI
3.49 µM

# input compound: CC(=O)OCC1OC(S[As](C)C)C(OC(C)=O)C1OC(C)=O (centres undefined) ; wanted: its TGI
3.06 µM

# input compound: O=C1c2ccccc2C(=O)c2nc(-c3ccccc3)c(-c3ccccc3)nc21 ; wanted: its TGI
> 93.6 µM

# input compound: O=C1c2cccnc2C(=O)c2c1nc1ccccc1c2-c1cncc(-c2c3c(nc4ccccc24)C(=O)c2cccnc2C3=O)c1 ; wanted: its TGI
5.39 µM

# input compound: NC(=S)N/N=C(/C(=O)Nc1nc2ccc([N+](=O)[O-])cc2s1)C1C(=O)NC(=S)NC1=O ; wanted: its TGI
> 100 µM

# input compound: COC1CC2CCC(C)[C@](O)(O2)C(=O)C(=O)N2CCCCC2C(=O)OC(C(C)CC2CCC(O)C(OC)C2)CC(=O)C(C)C=C(C)C(OC(=O)CN(C)C)C(OC)C(=O)C(C)CC(C)/C=C/C=C/C=C\1C (some centres undefined) ; wanted: its TGI
11.9 µM

# input compound: COc1cc(-c2nc3ccccc3s2)ccc1OCc1nc2n(n1)S(=O)(=O)c1ccccc1N2C ; wanted: its TGI
> 100 µM

# input compound: CNC1C(O)CC(OC2C/C=C(\C)C/C(C)=C/C=C/CCC(C)CNC(=O)/C=C/C=C/C2C)OC1C (centres undefined) ; wanted: its TGI
3.24 µM

# input compound: O=C(Nc1ccc(Br)c(Cl)c1)c1cc(F)ccc1O ; wanted: its TGI
1.03 µM

# input compound: CC1C2=CC=C(O2)C(C)(C)C2=CC=C(O2)C(C)(C)C2=CC=C(O2)C(C)(C)C2=CC=C1O2 ; wanted: its TGI
> 100 µM

# input compound: CC1(C)N=C(N)N=C(N)N1c1cccc(OCc2cccc([N+](=O)[O-])c2)c1 ; wanted: its TGI
> 100 µM

# input compound: COC(=O)/C(C#N)=C(\Nc1ccccc1)N1CCCCC1 ; wanted: its TGI
> 100 µM

----------
# Tested on: PC-3 prostate
# method-description: NCI tumour cell line growth inhibition, 48 h
measurement-kind: TGI (µM)
Give the number; µM is assumed, so skip it.

CC/C(=C(\CC)c1ccc(OCCN(CC)CC)cc1)c1ccc(OCCN(CC)CC)cc1 ... 19.5

# input compound: Cn1cnc2c(NCc3ccccc3)nc(NCCO)nc21 ; wanted: its TGI
283

----------
# System: OVCAR-3 ovarian
# method-description: NCI tumour cell line growth inhibition, 48 h
measurement-kind: GI50

Known GI50 results, listed for orientation:
CCC[CH2][Sn]([CH2]CCC)([S]C1=NCCS1)[S]C1=NCCS1 ... 0.563 µM
COc1cc(C(=O)n2nc(N3CCN(C)CC3)c3cc(N)ccc32)cc(OC)c1OC ... 2.39 µM

Query for OVCAR-3 ovarian: what GI50 does the record show for C#C[C@@]1(O)[C@@H](CO)O[C@@H](n2cc(F)c3c(N)ncnc32)[C@@H]1O ?
1.11 µM

Query for OVCAR-3 ovarian: what GI50 does the record show for O=C(Nc1ccc(Br)c(Cl)c1)c1cc(F)ccc1O ?
0.481 µM

Query for OVCAR-3 ovarian: what GI50 does the record show for CCCCCCCCCCCCCCCCOCCCOP(=O)(O)C1CCCN(O)C1=O (stereo not given) ?
2.77 µM

Query for OVCAR-3 ovarian: what GI50 does the record show for Clc1ccc(CO/N=C(\Cn2ccnc2)c2ccc(Cl)cc2Cl)c(Cl)c1 ?
1.66 µM

Query for OVCAR-3 ovarian: what GI50 does the record show for NC(=O)Oc1cc(OC(N)=O)cc(N(CCCl)CCCl)c1 ?
4.74 µM

----------
Below is a list of entries, each paired with its recorded TGI value.
# System: SK-MEL-5 melanoma
# method-description: NCI tumour cell line growth inhibition, 48 h
Give the number; µM is assumed, so skip it.

C[C@H](CCC1=NCCN1)[C@H]1CC[C@H]2[C@@H]3CC[C@@H]4C[C@H](O)CC[C@]4(C)[C@H]3CC[C@]12C ... 3.45

Next compound, please.
# input compound: CCN(CC)CCOc1cc2c(C(=O)OC)c(C)oc2cc1C(C)=O ; wanted: its TGI
19

----------
# System: RPMI-8226 leukemia
# method-description: NCI tumour cell line growth inhibition, 48 h
measurement-kind: log10(TGI) (log10 of the value in µM)
Each number you see is log10 of TGI, and the unit inside the log is µM.

Known log10(TGI) results, listed for orientation:
COC(=O)C#Cc1ccc([N+](=O)[O-])cc1 ... 0.17
COC(=O)C(=O)C(C(=O)C(=O)Nc1cc([N+](=O)[O-])ccc1[N+](=O)[O-])c1nc2ccc(C(=O)c3ccccc3)cc2[nH]c1=O (stereo not given) ... 1.80
O=C1NC(Cc2c[nH]c3ccccc23)C(=O)N2C(c3ccccc3)c3[nH]c4ccccc4c3C[C@@H]12 (stereo not given in full) ... 1.71
CSC(=N)N1N=C2c3ccccc3CC[C@@H]2[C@@H]1c1ccccc1 ... 1.55
Clc1ccc2nc(CCSCCc3nc4ccc(Cl)cc4[nH]3)[nH]c2c1 ... 1.13
CC(C)=CCC/C(C)=C/CC/C(=C/COP(=O)(OCc1ccc([N+](=O)[O-])o1)N(C)CCCCCl)C(C)(C)C (stereo not given) ... 1.09
O=c1[nH]c(=O)n(C2CC(O)C(CO)O2)c2nc3ccc4ccccc4c3nc12 (stereo not given) ... 1.88
COc1cc2c3c(c4cc(OC)c(OC)cc4c2cc1OC)[C@H](O)[C@@H]1CCCN1C3 ... -0.36
O=C1/C(=C/C(Cl)=C/c2ccccc2)SC(=S)N1CCc1ccc(O)cc1 ... 1.10

Next molecule, please.
# input molecule: CC(=C(C(=O)O)C(=O)O)c1cc(-c2cccs2)cc(-c2ccc(Cl)cc2)c1O ; wanted: its log10(TGI)
1.19

----------
Below is a list of entries, each paired with its recorded TGI value.
# Test system: SF-295 CNS
# method-description: NCI tumour cell line growth inhibition, 48 h

Known TGI results, listed for orientation:
CC1C2=CC=C(O2)C(C)(C)C2=CC=C(O2)C(C)(C)C2=CC=C(O2)C(C)(C)C2=CC=C1O2 ... > 100 µM
O=C(O)CCC1CCC(c2cc(F)ccc2F)(S(=O)(=O)c2ccc(Cl)cc2)CC1 (configuration not stated) ... > 100 µM
NC(=S)N/N=C(/C(=O)Nc1nc2ccc([N+](=O)[O-])cc2s1)C1C(=O)NC(=S)NC1=O ... > 100 µM

Query for SF-295 CNS: what TGI does the record show for Cn1cnc2c(NCc3ccccc3)nc(NCCO)nc21 ?
> 500 µM

Query for SF-295 CNS: what TGI does the record show for N=C(N)C1CN(CC=O)C(=O)NC1=O (configuration not stated) ?
> 100 µM

Query for SF-295 CNS: what TGI does the record show for CC12CC3CC(C)(C1)CC(N=[N+]=[N-])(C3)C2 ?
> 100 µM

Query for SF-295 CNS: what TGI does the record show for O=c1[nH]c2ccsc2c(=O)n1COCc1ccccc1 ?
> 100 µM

Query for SF-295 CNS: what TGI does the record show for Nc1nccc(Nc2ccc(S(N)(=O)=O)cc2)n1 ?
> 100 µM

Query for SF-295 CNS: what TGI does the record show for CN1CCN(Cc2ccc(Nc3ncc(Cl)c(Nc4ccccc4S(=O)(=O)N(C)C)n3)cc2)CC1 ?
> 100 µM

Query for SF-295 CNS: what TGI does the record show for CC1(C)N=C(N)N=C(N)N1c1cccc(OCc2cccc([N+](=O)[O-])c2)c1 ?
> 100 µM

Query for SF-295 CNS: what TGI does the record show for NC(=O)NC(=O)c1ccc(NC(=O)CBr)cc1 ?
27.3 µM

Query for SF-295 CNS: what TGI does the record show for C=C(Cl)C(Br)(CBr)CCC(Br)C(C)(C)Br (configuration not stated) ?
> 10 µM

Query for SF-295 CNS: what TGI does the record show for CCOC(=O)C1C(c2ccc([N+](=O)[O-])cc2)NC(c2ccc([N+](=O)[O-])cc2)C(C(=O)OC)S1(=O)=O (configuration not stated) ?
> 100 µM

Query for SF-295 CNS: what TGI does the record show for COc1ccc2c(c1)Cc1c-2c(NN)nc2ccccc12 ?
> 100 µM

Query for SF-295 CNS: what TGI does the record show for COc1cc(C(=O)n2nc(N3CCN(C)CC3)c3cc(N)ccc32)cc(OC)c1OC ?
18.2 µM

Query for SF-295 CNS: what TGI does the record show for CCNc1nc(N2CC(=O)Nc3cc(OC)ccc32)c2ccccc2n1 ?
0.00614 µM

Query for SF-295 CNS: what TGI does the record show for COc1ccc(-c2cc(-c3ccco3)c(C#N)c(=S)n2C2OC(CO)C(O)C(O)C2O)cc1 (configuration not stated) ?
> 100 µM

Query for SF-295 CNS: what TGI does the record show for O=C1/C(=C/C(Cl)=C/c2ccccc2)SC(=S)N1CCc1ccc(O)cc1 ?
15.9 µM

Query for SF-295 CNS: what TGI does the record show for CCn1c(=O)c2c3ccc(O)cc3oc2c2ccc(O)cc21 ?
> 100 µM

Query for SF-295 CNS: what TGI does the record show for CSC(=N)N1N=C2c3ccccc3CC[C@@H]2[C@@H]1c1ccccc1 ?
27.9 µM

Query for SF-295 CNS: what TGI does the record show for Cc1cc2nc3c(C#N)c(-c4ccccc4)cc(Nc4ccc(F)cc4)n3c2cc1C ?
76.2 µM

Query for SF-295 CNS: what TGI does the record show for CC1OC(O)CC(OC(=O)c2ccccc2)C1OC(=O)c1ccccc1 (configuration not stated) ?
> 100 µM

Query for SF-295 CNS: what TGI does the record show for O=C(Nc1ccc(Br)c(Cl)c1)c1cc(F)ccc1O ?
1.89 µM

Query for SF-295 CNS: what TGI does the record show for O=C(CC1(O)C(=O)Nc2c(Cl)cc(Cl)cc21)c1ccc2ccccc2c1 (configuration not stated) ?
21.3 µM
